Origin of the recorded values: patent US20260207602A1

Molecular target: EGFR L858R (Homo sapiens, UniProt P00533, L858R)
Construct: purchased SignalChem E10-122BG
Sequence (P00533 25-1210 L858R): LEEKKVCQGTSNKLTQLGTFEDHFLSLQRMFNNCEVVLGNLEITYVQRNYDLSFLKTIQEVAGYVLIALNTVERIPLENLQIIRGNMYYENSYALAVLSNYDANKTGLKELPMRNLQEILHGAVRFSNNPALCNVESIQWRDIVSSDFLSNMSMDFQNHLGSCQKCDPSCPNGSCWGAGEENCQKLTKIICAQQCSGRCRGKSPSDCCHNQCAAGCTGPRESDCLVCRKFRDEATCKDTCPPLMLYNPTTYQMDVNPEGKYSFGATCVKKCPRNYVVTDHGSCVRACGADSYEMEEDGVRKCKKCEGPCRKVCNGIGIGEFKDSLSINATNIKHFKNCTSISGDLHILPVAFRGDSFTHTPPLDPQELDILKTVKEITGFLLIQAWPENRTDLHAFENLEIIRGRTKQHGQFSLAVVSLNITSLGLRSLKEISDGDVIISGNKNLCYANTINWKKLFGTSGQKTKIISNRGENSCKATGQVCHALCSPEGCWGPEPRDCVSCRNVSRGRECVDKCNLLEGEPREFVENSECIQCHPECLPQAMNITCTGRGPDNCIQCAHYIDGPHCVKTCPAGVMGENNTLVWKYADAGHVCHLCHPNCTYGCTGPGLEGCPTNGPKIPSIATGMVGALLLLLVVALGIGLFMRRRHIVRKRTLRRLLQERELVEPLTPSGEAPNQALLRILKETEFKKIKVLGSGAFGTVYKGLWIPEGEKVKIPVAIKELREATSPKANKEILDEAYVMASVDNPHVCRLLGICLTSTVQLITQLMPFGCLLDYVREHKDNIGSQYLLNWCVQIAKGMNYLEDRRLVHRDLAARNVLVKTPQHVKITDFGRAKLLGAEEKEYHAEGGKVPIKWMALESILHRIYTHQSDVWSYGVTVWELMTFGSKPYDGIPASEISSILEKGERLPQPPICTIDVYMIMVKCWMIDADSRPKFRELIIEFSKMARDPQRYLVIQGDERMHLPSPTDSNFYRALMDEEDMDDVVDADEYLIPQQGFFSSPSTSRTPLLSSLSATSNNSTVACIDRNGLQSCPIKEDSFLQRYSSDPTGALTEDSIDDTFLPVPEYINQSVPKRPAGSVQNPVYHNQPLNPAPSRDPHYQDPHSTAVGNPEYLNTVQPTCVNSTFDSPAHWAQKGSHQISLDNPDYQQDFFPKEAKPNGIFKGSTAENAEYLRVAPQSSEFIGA
Test: Biochemical EGFR inhibition assay (Caliper mobility shift), EGFR L858R
Details: biochemical Caliper mobility shift assay, EGFR L858R enzyme; read-out: Enz EGFR L858R IC50
pIC50: −log10 of the molar value.
Attribute Measured: pIC50

// pIC50 value for C[C@@H](Oc1cc(-c2cnn(C)c2)cc2ncnc(Nc3ccc4ncsc4c3F)c12)[C@H]1CCOC1 (single isomer, unassigned) [Example 88] : ≥ 8.00

// pIC50 value for COc1cn(C)nc1-c1cc(OC2CCN(C)CC2)c2c(Nc3ccc4ncsc4c3)ncnc2c1 [Example 131] : 7.30 to 8.00

// pIC50 value for CN1C[C@H](F)C[C@H](Oc2cc(-c3cnn(C)c3)cc3ncnc(Nc4ccc5ncsc5c4)c23)C1 (single isomer, unassigned) [Example 337] : ≥ 8.00

// pIC50 value for COCCN1CCC(Oc2cc(-c3nn(C)cc3OC)cc3ncnc(Nc4ccc5ncsc5c4)c23)CC1 [Example 308] : 7.30 to 8.00

###

Measured pIC50, listed per entry for reference.
Biological target: EGFR L858R (Homo sapiens, UniProt P00533, L858R)
Construct: purchased SignalChem E10-122BG
Assay: Biochemical EGFR inhibition assay (Caliper mobility shift), EGFR L858R
Conditions: biochemical Caliper mobility shift assay, EGFR L858R enzyme; read-out: Enz EGFR L858R IC50
pIC50: −log10 of the molar value.

// pIC50 value for Cn1cc(-c2cc(O[C@@H]3CNC[C@H](F)C3)c3c(Nc4ccc5ncsc5c4)ncnc3c2)cn1 (single isomer, unassigned) [Example 334] : ≥ 8.00

###

Measured pIC50, listed per entry for reference.
Biological target: intracellular phosphorylation of EGFR (Tyr1068) in PC-9 cells (Homo sapiens, UniProt P00533, DEL746-750)
Sequence (P00533 with tags, fused parts or gaps DEL746-750): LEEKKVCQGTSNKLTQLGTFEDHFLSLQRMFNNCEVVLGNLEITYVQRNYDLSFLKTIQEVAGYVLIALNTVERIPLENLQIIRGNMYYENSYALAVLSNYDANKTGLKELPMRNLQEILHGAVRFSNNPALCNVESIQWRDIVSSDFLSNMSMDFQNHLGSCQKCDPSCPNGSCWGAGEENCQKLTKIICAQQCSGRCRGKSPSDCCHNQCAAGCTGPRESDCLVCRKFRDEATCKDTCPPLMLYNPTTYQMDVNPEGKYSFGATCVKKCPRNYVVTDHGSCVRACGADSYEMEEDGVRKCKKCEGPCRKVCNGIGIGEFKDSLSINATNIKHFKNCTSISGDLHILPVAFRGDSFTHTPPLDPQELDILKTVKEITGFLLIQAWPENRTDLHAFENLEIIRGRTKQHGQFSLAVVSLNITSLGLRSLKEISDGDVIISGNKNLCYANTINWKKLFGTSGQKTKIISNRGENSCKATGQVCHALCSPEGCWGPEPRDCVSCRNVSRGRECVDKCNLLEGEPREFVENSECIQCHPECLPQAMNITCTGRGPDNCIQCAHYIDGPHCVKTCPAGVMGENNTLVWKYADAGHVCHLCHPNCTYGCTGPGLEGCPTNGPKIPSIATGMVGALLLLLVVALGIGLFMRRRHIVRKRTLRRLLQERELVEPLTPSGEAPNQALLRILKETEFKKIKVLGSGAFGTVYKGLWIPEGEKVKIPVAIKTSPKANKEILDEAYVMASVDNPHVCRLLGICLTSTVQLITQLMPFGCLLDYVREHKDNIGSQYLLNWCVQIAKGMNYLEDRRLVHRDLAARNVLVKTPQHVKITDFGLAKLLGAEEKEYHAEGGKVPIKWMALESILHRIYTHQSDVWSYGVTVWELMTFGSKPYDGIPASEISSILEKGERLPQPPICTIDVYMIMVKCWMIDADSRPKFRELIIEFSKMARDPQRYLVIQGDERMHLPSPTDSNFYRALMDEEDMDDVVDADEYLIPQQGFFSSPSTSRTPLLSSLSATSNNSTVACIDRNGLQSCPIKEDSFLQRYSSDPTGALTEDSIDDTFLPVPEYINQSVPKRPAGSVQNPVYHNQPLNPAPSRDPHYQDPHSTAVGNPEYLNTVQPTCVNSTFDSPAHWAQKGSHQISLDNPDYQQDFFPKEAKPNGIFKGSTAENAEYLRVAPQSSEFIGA
Assay: PC-9 pEGFR AlphaLISA assay
Conditions: 4 hours incubation, read-out: Phos EGFR PC9 IC50
pIC50: −log10 of the molar value.

Here are 3 compounds together with their reported answers.
// pIC50 value for CO[C@@H]1CCNC[C@H]1Oc1cc(-c2cnn(C)c2)cc2ncnc(Nc3ccc4ncsc4c3)c12 (single isomer, unassigned) [Example A37] : 7.30 to 8.00

// pIC50 value for C[C@H]([C@@H](C)Oc1cc(-c2cnn(C)c2)cc2ncnc(Nc3ccc4ncsc4c3)c12)N(C)C (single isomer, unassigned) [Example 143] : ≥ 8.00

// pIC50 value for CC[C@H](Oc1cc(-c2cnn(C)c2)cc2ncnc(Nc3ccc4ncsc4c3F)c12)C1CN(C)C1 (single isomer, unassigned) [Example 390] : < 7.30

***
// pIC50 value for Cn1cc(-c2cc(O[C@@H]3CCOC[C@@H]3F)c3c(Nc4ccc5ncsc5c4)ncnc3c2)cn1 (single isomer, unassigned) [Example 43] : 7.30 to 8.00

// pIC50 value for Cn1cc(-c2cc(O[C@H]3CC[C@@H](O)CC3)c3c(Nc4ccc5ncsc5c4)ncnc3c2)cn1 [Example 11] : ≥ 8.00

// pIC50 value for CC(Oc1cc(-c2cnn(C)c2)cc2ncnc(Nc3ccc4ncsc4c3F)c12)C(=O)N1CCOCC1 (stereo not drawn) [Example 281] : ≥ 8.00

###

Molecular target: EGFR L858R (Homo sapiens, UniProt P00533, L858R)
Construct: purchased SignalChem E10-122BG
Test: Biochemical EGFR inhibition assay (Caliper mobility shift), EGFR L858R
Details: biochemical Caliper mobility shift assay, EGFR L858R enzyme; read-out: Enz EGFR L858R IC50
pIC50: −log10 of the molar value.
Measured pIC50, listed per entry for reference.

Here are 5 compounds together with their reported answers.
// pIC50 value for CO[C@@H]1CCNC[C@H]1Oc1cc(-c2cnn(C)c2)cc2ncnc(Nc3ccc4ncsc4c3)c12 (single isomer, unassigned) [Example A38] : 7.30 to 8.00

// pIC50 value for CO[C@@H]1CN(C)CC[C@H]1Oc1cc(-c2cnn(C)c2)cc2ncnc(Nc3ccc4ncsc4c3)c12 (single isomer, unassigned) [Example A43] : ≥ 8.00

// pIC50 value for CN(C)CC1(COc2cc(-c3cnn(C)c3)cc3ncnc(Nc4ccc5ncsc5c4)c23)COC1 : 7.30 to 8.00

// pIC50 value for COCC[C@@H](C)Oc1cc(-c2cnn(C)c2)cc2ncnc(Nc3ccc4ncsc4c3F)c12 (single isomer, unassigned) [Example 108] : ≥ 8.00

// pIC50 value for CC(C)n1cc(-c2cc(OC3CCOCC3)c3c(Nc4ccc5ncsc5c4)ncnc3c2)cn1 : ≥ 8.00

***
// pIC50 value for COc1cc2c(Nc3ccc4ncsc4c3F)ncnc2cc1-c1cnn(C)c1 : ≥ 8.00

// pIC50 value for Cn1cc(-c2cc(O[C@H]3CC[C@@H](O)CC3)c3c(Nc4ccc5ncsc5c4)ncnc3c2)cn1 : ≥ 8.00

// pIC50 value for COC[C@H](C)Oc1cc(N2CCN(C)CC2)cc2ncnc(Nc3ccc4ncsc4c3)c12 (single isomer, unassigned) [Example 205] : ≥ 8.00

// pIC50 value for C[C@H](CN(C)C)Oc1cc(N2CC[C@@H](C(C)(C)O)C2)cc2ncnc(Nc3ccc4ncsc4c3)c12 (single isomer, unassigned) [Example 155] : ≥ 8.00

// pIC50 value for COc1nn(C)cc1-c1cc(OC2CCN(C)CC2(F)F)c2c(Nc3ccc4ncsc4c3)ncnc2c1 (centres unmarked) : ≥ 8.00

// pIC50 value for [2H]C([2H])([2H])Oc1cc(O[C@H](C)C2COC2)c2c(Nc3ccc4ncsc4c3F)ncnc2c1 : ≥ 8.00

// pIC50 value for Cn1cc(-c2cc(OC(C)(C)C(=O)N3CCOCC3)c3c(Nc4ccc5ncsc5c4)ncnc3c2)cn1 : 7.30 to 8.00

// pIC50 value for COc1cc2ncnc(Nc3ccc4ncsc4c3)c2cc1N[C@H]1CCN(C)C[C@@H]1F : ≥ 8.00

// pIC50 value for Cn1cc(-c2cc(O[C@@H]3CC[C@H]3O)c3c(Nc4ccc5ncsc5c4)ncnc3c2)cn1 (single isomer, unassigned) [Example A54] : ≥ 8.00

###

Molecular target: intracellular phosphorylation of EGFR (Tyr1068) in PC-9 cells (Homo sapiens, UniProt P00533, DEL746-750)
Assay: PC-9 pEGFR AlphaLISA assay
Details: 4 hours incubation, read-out: Phos EGFR PC9 IC50
pIC50: −log10 of the molar value.
Attribute Measured: pIC50

// pIC50 value for Cn1cc(-c2cc(O[C@H]3COC[C@@H]3O)c3c(Nc4ccc5ncsc5c4)ncnc3c2)cn1 (single isomer, unassigned) [Example A29] : 7.30 to 8.00

// pIC50 value for COC[C@H](CN(C)C)Oc1cc(-c2cnn(C)c2)cc2ncnc(Nc3ccc4ncsc4c3)c12 [Example 141] : 7.30 to 8.00

// pIC50 value for Cn1cc(-c2cc(O[C@@H]3CCNC[C@H]3F)c3c(Nc4ccc5ncsc5c4F)ncnc3c2)cn1 [Example 348] : ≥ 8.00

***
// pIC50 value for Cn1cc(-c2cc(O[C@@H]3CC[C@@H]3O)c3c(Nc4ccc5ncsc5c4)ncnc3c2)cn1 (single isomer, unassigned) [Example A51] : ≥ 8.00

###

Target: intracellular phosphorylation of EGFR (Tyr1068) in PC-9 cells (Homo sapiens, UniProt P00533, DEL746-750)
Test: PC-9 pEGFR AlphaLISA assay
Settings: 4 hours incubation, read-out: Phos EGFR PC9 IC50
Attribute Measured: IC50

// IC50 value for CO[C@@H]1CNCC[C@H]1Oc1cc(-c2cnn(C)c2)cc2ncnc(Nc3ccc4ncsc4c3)c12 (single isomer, unassigned) [Example A41] : 10.1 to 50 nM

// IC50 value for CC(Oc1cc(-c2cn(C)nc2OC(F)F)cc2ncnc(Nc3ccc4ncsc4c3)c12)C1COC1 (single isomer, unassigned) [Example 173] : ≤ 10 nM

Could you now consider this next compound?
// IC50 value for Cn1cc(-c2cc(O[C@H]3CNC[C@H](F)C3)c3c(Nc4ccc5ncsc5c4)ncnc3c2)cn1 (racemic) : ≤ 10 nM

###

Biological target: intracellular phosphorylation of EGFR (Tyr1068) in PC-9 cells (Homo sapiens, UniProt P00533, DEL746-750)
Assay: PC-9 pEGFR AlphaLISA assay
Conditions: 4 hours incubation, read-out: Phos EGFR PC9 IC50
Attribute Measured: IC50

// IC50 value for CN(C)C(=O)COc1cc(-c2cnn(C)c2)cc2ncnc(Nc3ccc4ncsc4c3F)c12 : ≤ 10 nM

***
// IC50 value for COc1nn(C)cc1-c1cc(O[C@@H]2COC[C@H]2F)c2c(Nc3ccc4ncsc4c3)ncnc2c1 (racemic) : 10.1 to 50 nM

// IC50 value for CN1CC[C@H](Oc2cc(-c3cnn(C)c3)cc3ncnc(Nc4ccc5ncsc5c4)c23)C1 : 10.1 to 50 nM

// IC50 value for COC[C@@H](C)Oc1cc(N2CCN(CCO)CC2)cc2ncnc(Nc3ccc4ncsc4c3)c12 : 10.1 to 50 nM

// IC50 value for C[C@H](CO)Oc1cc(-c2cnn(C)c2)cc2ncnc(Nc3ccc4ncsc4c3F)c12 (single isomer, unassigned) : ≤ 10 nM

// IC50 value for COc1cn(C)nc1-c1cc(OC2CCN(C)CC2)c2c(Nc3ccc4ncsc4c3F)ncnc2c1 : ≤ 10 nM

// IC50 value for CCn1cc(-c2cc(OC3CCN(C4COC4)CC3)c3c(Nc4ccc5ncsc5c4)ncnc3c2)cn1 : ≤ 10 nM
